# tested on: UniProtKB Q72547
# measurement protocol: Tested for the inhibition of wild type HIV-1 (IIIB) RT
// returns Condition not met unless IC50 is strictly below 8 nM, in which case Condition met

Worked set:
Fc1cc(F)c(CCNC(=S)Nc2ccc(Cl)cn2)c(F)c1 = Condition met
CC(=O)NCc1ccc(F)c(CCNC(=S)Nc2ccc(Br)cn2)c1F = Condition not met
N#Cc1ccoc1CCNC(=S)Nc1ccc(Cl)cn1 = Condition not met

Say whether its IC50 is strictly beneath 8 nM. Entry: "CCOc1ccc(F)c(CCNC(=S)Nc2ccc(C#N)cn2)c1Cl"
Condition met

Say whether its IC50 is strictly beneath 8 nM. Entry: "COc1ccc(F)c(CCNC(=S)Nc2ccc(C#N)cn2)c1C#N"
Condition met

Say whether its IC50 is strictly beneath 8 nM. Entry: "CCOc1ccc(F)c(F)c1CCNC(=S)Nc1ccc(Br)cn1"
Condition met

Say whether its IC50 is strictly beneath 8 nM. Entry: "Fc1ccoc1CC/N=C(\S)Nc1ccc(Cl)cn1"
Condition met

Say whether its IC50 is strictly beneath 8 nM. Entry: "Cn1cccc1CCNC(=S)Nc1ccc(Cl)cn1"
Condition not met

Say whether its IC50 is strictly beneath 8 nM. Entry: "CCOc1ccc(Cl)c(CC/N=C(\S)Nc2ccc(Br)cn2)c1F"
Condition met

Say whether its IC50 is strictly beneath 8 nM. Entry: "COc1ccc2[nH]cc(CC/N=C(\S)Nc3ccc(Br)cn3)c2c1"
Condition not met

---

# key: entry, value: EC50
# Test system: MT4
# measurement protocol: Inhibition of HIV-1(IIIB) variants (Ile100/Asn103) in HIV-1 MT-4 cells
# Format: functional
# assay context: Homo sapiens, read-out: ED50 (the source's name)

The cases that follow already have their EC50 on record.
COc1ccc(F)c(F)c1CCNC(=S)Nc1ccc(Br)cn1 = > 10 µM
CCOc1ccc(F)c(CCNC(=S)Nc2ccc(Br)cn2)c1F = > 10 µM
Fc1ccoc1CC/N=C(\S)Nc1ccc(Cl)cn1 = > 10 µM

Answer with reported EC50 of "CCOc1ccc(OC)c(CCNC(=S)Nc2ccc(Cl)cn2)c1F"
> 10 µM

Answer with reported EC50 of "CCOc1ccc(Cl)c(CC/N=C(\S)Nc2ccc(Br)cn2)c1F"
> 10 µM

Answer with reported EC50 of Cc1ccnc2c1NC(=O)c1cccnc1N2C1CC1 [NEVIRAPINE]
8 µM

Answer with reported EC50 of "O=C1c2ccccc2C(=O)N1CCNC(=S)Nc1ccc(Cl)cn1"
> 10 µM

Answer with reported EC50 of "CCOc1ccc(F)c(F)c1CCNC(=S)Nc1ccc(Br)cn1"
> 10 µM

Answer with reported EC50 of "CCOc1cccc(F)c1CCNC(=S)Nc1ccc(Br)cn1"
1.6 µM

Answer with reported EC50 of "N#Cc1ccc(F)c(CC/N=C(\S)Nc2ccc(Cl)cn2)c1F"
> 10 µM

Answer with reported EC50 of "CN(C)c1ccc(CC/N=C(\S)Nc2ccc(Br)cn2)c(F)c1C#N"
5.5 µM

Answer with reported EC50 of "COc1ccc(F)c(CC/N=C(\S)Nc2ccc(Br)cn2)c1C#N"
> 10 µM

Answer with reported EC50 of "CCOc1ccc(F)c(CC/N=C(\S)Nc2ccc(Br)cn2)c1C#N"
> 10 µM

Answer with reported EC50 of "COc1ccc(OC)c(CCNC(=S)Nc2ccc(Cl)cn2)c1F"
1 µM

These data points were gathered from ChEMBL document CHEMBL1129452.
